Task for the reader: assign each of the following compounds its reported Preemergence herbicidal rating ORYSAT.
- System: ORYSAT (Rice, Tebonnet)
- protocol_description: Preemergence herbicidal evaluation
- Assay type: in vivo, Oryza sativa, (L.) Tebonnet
- test_conditions: rate 0.0625 kg/ha; rated 4-5 weeks after treatment; rating scale 0-9
Reply: number alone, nothing else.

Please look at this compound and report its Preemergence herbicidal rating ORYSAT: Cc1cccc(CN2C(=O)CSC2=Nc2cc(-n3c(=O)cc(C(F)(F)F)n(C)c3=O)c(F)cc2Cl)c1 [Compound 130]
1.0

Please look at this compound and report its Preemergence herbicidal rating ORYSAT: Cn1c(C(F)(F)F)cc(=O)n(-c2cc(N=C3SCC(=O)N3Cc3ccc(Br)cc3)c(Cl)cc2F)c1=O [Compound 148]
0.0

Please look at this compound and report its Preemergence herbicidal rating ORYSAT: Cn1c(C(F)(F)F)cc(=O)n(-c2cc(N=C3SCC(=O)N3Cc3cccc(C(F)(F)F)c3)c(Cl)cc2F)c1=O [Compound 142]
0.0

Please look at this compound and report its Preemergence herbicidal rating ORYSAT: CSCCN1C(=O)CSC1=Nc1cc(-n2c(=O)cc(C(F)(F)F)n(C)c2=O)c(F)cc1Cl [Compound 157]
0.0
